Tested on: OCI-AML2;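 further: after 48 h exposure read by CellTiter-Glo luminescence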
Test: cell viability relative to vehicle control; higher = less cytotoxic
Conditions: 10 µM; SRSF2 genotype: P95H/wt
Counter-ions that a name gives are not always drawn.
Recorded cell viability values for a group of compounds are listed next.
Value expressed in %; do not type the unit.

> print(dat)
                                   compound  reading
1  CC1CCCCCCCCCCCCC(=O)C1 (centres undefined)       82

Looking up CC(C(=O)O)c1cccc(Oc2ccccc2)c1 (centres undefined) [Fenoprofen calcium hydrate] , I found its cell viability recorded as 106

Looking up CCN(CC)Cc1cc(Nc2ccnc3cc(Cl)ccc23)ccc1O [Amodiaquine hydrochloride] , I found its cell viability recorded as 39

Looking up `NC(=O)N/N=C/c1ccc([N+](=O)[O-])o1` , I found its cell viability recorded as 102

Looking up `Nc1cc(C(Cl)=C(Cl)Cl)c(S(N)(=O)=O)cc1S(N)(=O)=O` , I found its cell viability recorded as 99.9

Looking up Cc1cncc(CN2CCC(=C3c4ccc(Cl)cc4CCc4cccnc43)CC2)c1 [Rupatadine Fumarate] , I found its cell viability recorded as 38.6

Looking up `C/C(=C\C(=O)Nc1ccccc1C(=O)O)c1ccc2ccccc2c1` , I found its cell viability recorded as 95.1

Looking up `Cc1c(C(=O)C=Cc2ccccc2)[n+](=O)c2ccccc2n1[O-]` , I found its cell viability recorded as 62.7

Looking up CC12CCC(CC1=O)C2(C)C (centres undefined) , I found its cell viability recorded as 102
